Assay: in vitro
Experimental context: mouse
Readout name: IC50 (µg/mL)
Unit µg/mL implied. Number only.

>  <Compound>
Nc1ccccc1O [2-Aminophenol]

>  <Unit abbrev>
µg/mL

>  <IC50>
41.2

$$$$

Next, consider the following compound.
### Prompt Which measured IC50 value corresponds to CC(O)CCO (centres unmarked) [Butylene Glycol] ?
### Response 7320

====

Assay: Cell viability analysis (MTT) cytotoxicity, skin 3T3 cells
Experimental context: mouse, skin 3T3 cells (ATCC CCL-92)
Readout name: IC50 at 24 h (µg/mL)
Unit µg/mL implied. Number only.

Illustrative cases are given below, each with its answer.
>  <Molecule>
O=C(O)c1ccccc1O [Salicylic Acid]

>  <Unit abbrev>
µg/mL

>  <IC50 at 24 h>
1390

$$$$
>  <Molecule>
CC(O)C(=O)O (stereo not drawn) [Lactic acid]

>  <Unit abbrev>
µg/mL

>  <IC50 at 24 h>
30.5

$$$$
>  <Molecule>
Oc1cccc(O)c1 [Resorcinol]

>  <Unit abbrev>
µg/mL

>  <IC50 at 24 h>
9860

$$$$
>  <Molecule>
Nc1cccc(O)c1 [3-Aminophenol]

>  <Unit abbrev>
µg/mL

>  <IC50 at 24 h>
308

$$$$

Next, consider the following molecule.
### Prompt Which measured IC50 at 24 h value corresponds to OO [Hydrogen Peroxide] ?
### Response 63.7

====

Reported values: B16-F10 cytotoxicity IC50 for B16-F10 cells, one per item.
Unit µg/mL implied. Number only.

Illustrative cases are given below, each with its answer.
>  <Molecule>
Cn1sc(Cl)cc1=O

>  <B16-F10 cytotoxicity IC50 (µg/mL)>
58

$$$$
>  <Molecule>
O.O.O.O.O.O.O.O.O.[Na+].[Na+].[S-2] [sodium Sulfide-9-Hydrate]

>  <B16-F10 cytotoxicity IC50 (µg/mL)>
4187.1

$$$$

### Prompt Which measured B16-F10 cytotoxicity IC50 value corresponds to O.O.O=C([O-])CC(O)(CC(=O)[O-])C(=O)[O-].[Na+].[Na+].[Na+] [Trisodium Citrate Dihydrate] ?
### Response 3335.4

====

Listed below: Agar coagulation time values for each entry.
Assay: Agar coagulation time with cosmetic materials (3% agar)
Experimental context: sample concentration 1 % (w/w)
Unit min implied. Number only.

### Prompt Which measured Agar coagulation time value corresponds to OO [Hydrogen Peroxide] ?
### Response 18.406

### Prompt Now this one: CC(C)CCCC(C)CCCC(C)CCCCC(C)CCCC(C)CCCC(C)C (stereo not drawn)
### Response 13.260

### Prompt Now this one: `NCCO`
### Response 13.193

### Prompt Now this one: `Nc1ccc(N)cc1`
### Response 16.245

### Prompt Now this one: `O=C(O)c1ccccc1O`
### Response 13.210

### Prompt Now this one: CC(=O)Oc1c(C)c(C)c2c(c1C)CCC(C)(CCC[C@H](C)CCC[C@H](C)CCCC(C)C)O2 (stereo partly drawn) [Tocopherol Acetate]
### Response 13.200

### Prompt Now this one: Cl.NCCCC[C@H](N)C(=O)O [Lysine hydrochloride]
### Response 13.241

====

Listed below: Agar coagulation time values for each entry.
Assay: Agar coagulation time with cosmetic materials (3% agar)
Experimental context: sample concentration 5 % (w/w)
Unit min implied. Number only.

### Prompt Which measured Agar coagulation time value corresponds to CCCCCCCCCCCCCC(=O)OC(C)C [Isopropyl Myristate] ?
### Response 13.186

### Prompt Now this one: OCC(O)CO [Glycerin]
### Response 13.228

### Prompt Now this one: O=C(O)c1ccccc1O [Salicylic Acid]
### Response 13.221

### Prompt Now this one: CC(O)C(=O)O (stereo not drawn) [Lactic acid]
### Response 23.378

### Prompt Now this one: COC(=O)c1ccc(O)cc1 [methyl p-hydroxybenzate]
### Response 13.197

### Prompt Now this one: Oc1cccc(O)c1 [Resorcinol]
### Response 238.511

### Prompt Now this one: Nc1ccc(N)cc1 [p-Phenylenediamine]
### Response 22.189

### Prompt Now this one: OO [Hydrogen Peroxide]
### Response 30.544

### Prompt Now this one: CCCCOC(=O)c1ccc(O)cc1 [Butyl Paraben]
### Response 13.210

### Prompt Now this one: NCCO [Monoethanolamine]
### Response 13.251

### Prompt Now this one: CC(=O)Oc1c(C)c(C)c2c(c1C)CCC(C)(CCC[C@H](C)CCC[C@H](C)CCCC(C)C)O2 (stereo partly drawn) [Tocopherol Acetate]
### Response 13.209

### Prompt Now this one: CCCCCCCCCCCCOS(=O)(=O)O.N [AmmoniumLauryl Sulfate, Ammonium Lauryl Sulfate]
### Response 18.811

### Prompt Now this one: CC(C)CCCC(C)CCCC(C)CCCCC(C)CCCC(C)CCCC(C)C (stereo not drawn) [Squalane]
### Response 13.199

### Prompt Now this one: Nc1cccc(O)c1 [3-Aminophenol]
### Response 20.455

### Prompt Now this one: Cl.NCCCC[C@H](N)C(=O)O [Lysine hydrochloride]
### Response 13.198
